Please provide measured zone of inhibition at 1000 µg/mL for the entries that follow.
- Test system: Neurospora Crassa 846
- assay-protocol: Agar plate disc diffusion test, zone of inhibition
- Type: cell-based
- assay-conditions: Neurospora crassa, CRASSA846, Neurospora Crassa 846; 1 mg/ml, 7 mm disc; * measurable zone of inhibition with regrowth of organism around disc; read-out: Size of Zone of Inhibition (*)
Numbered stars: 1 amine (or outer) side, 2 acyl side, 3 side chain; on linkers, the order of the positions; unused ones are H or OH. Bridge positions count the residues as written; N and C are the ends. Square brackets hold non-standard residues; d marks the D form. Peptide text beside a SMILES is read from it. * marks the point of attachment. ξ: configuration not given here. Orn(4R-OH,5R-OH) = O=C([C@H](C[C@@H](O)[C@@H](O)N[*:3])N[*:1])[*:2]; hTyr(3S-OH,4S-OH) = N[C@H](C(=O)O)[C@H](O)[C@@H](O)c1ccc(O)cc1; Pro(3S-OH,4S-Me) = C[C@H]1CN[C@H](C(=O)O)[C@H]1O; X5 = O=C(c1cc(Cl)cc(N[*:1])c1Cl)[*:2]; Hyp = O=C(O)[C@@H]1C[C@@H](O)CN1; Lauroyl = CCCCCCCCCCCC(=O)*; Decanoyl = CCCCCCCCCC(=O)*; 4Abz = Nc1ccc(C(=O)O)cc1; ξF = NC(Cc1ccccc1)C(=O)O; Ava = NCCCCC(=O)O
Answers are plain numbers, in mm.

# batch: return zone of inhibition at 1000 µg/mL for each of the 4 compounds below
1. CCCCCCCCCCCC(=O)NCCCCC(=O)N[C@H]1C[C@@H](O)[C@@H](O)NC(=O)[C@@H]2[C@@H](O)[C@@H](C)CN2C(=O)[C@H]([C@@H](C)O)NC(=O)[C@H]([C@H](O)[C@@H](O)c2ccc(O)cc2)NC(=O)[C@@H]2C[C@@H](O)CN2C(=O)[C@H]([C@@H](C)O)NC1=O [Example 62] ({Lauroyl-Ava}-[Orn(4R-OH,5R-OH)]T[Hyp][hTyr(3S-OH,4S-OH)]T[Pro(3S-OH,4S-Me)]; lactam 1-C)
2. CCCCCCCCCC(=O)Nc1ccc(C(=O)N[C@H]2C[C@@H](O)[C@@H](O)NC(=O)[C@@H]3[C@@H](O)[C@@H](C)CN3C(=O)[C@H]([C@@H](C)O)NC(=O)[C@H]([C@H](O)[C@@H](O)c3ccc(O)cc3)NC(=O)[C@@H]3C[C@@H](O)CN3C(=O)[C@H]([C@@H](C)O)NC2=O)cc1 [Example 79] ({Decanoyl-4Abz}-[Orn(4R-OH,5R-OH)]T[Hyp][hTyr(3S-OH,4S-OH)]T[Pro(3S-OH,4S-Me)]; lactam 1-C)
3. CCCCCCCCCCCC(=O)NC(Cc1ccccc1)C(=O)N[C@H]1C[C@@H](O)[C@@H](O)NC(=O)[C@@H]2[C@@H](O)[C@@H](C)CN2C(=O)[C@H]([C@@H](C)O)NC(=O)[C@H]([C@H](O)[C@@H](O)c2ccc(O)cc2)NC(=O)[C@@H]2C[C@@H](O)CN2C(=O)[C@H]([C@@H](C)O)NC1=O (stereo partly drawn) [Example 61] (Lauroyl-[ξF][Orn(4R-OH,5R-OH)]T[Hyp][hTyr(3S-OH,4S-OH)]T[Pro(3S-OH,4S-Me)]; lactam 2-C)
4. CCCCCCCCCCCC(=O)Nc1cc(Cl)cc(C(=O)N[C@H]2C[C@@H](O)[C@@H](O)NC(=O)[C@@H]3[C@@H](O)[C@@H](C)CN3C(=O)[C@H]([C@@H](C)O)NC(=O)[C@H]([C@H](O)[C@@H](O)c3ccc(O)cc3)NC(=O)[C@@H]3C[C@@H](O)CN3C(=O)[C@H]([C@@H](C)O)NC2=O)c1Cl [Example 67] (Lauroyl-[X5][Orn(4R-OH,5R-OH)]T[Hyp][hTyr(3S-OH,4S-OH)]T[Pro(3S-OH,4S-Me)]; lactam 2-C)

Reply text:
27
30
42
35
